# credit: patent US20250002564A1

// values below are reported pKd
target: T1, SARS-CoV-2 receptor binding domain (RBD), wild type, His-tagged (SARS-CoV-2, UniProt P0DTC2 319-541); experiment: method and format not given
T1 construct: domain: RBD; also called His-tagged RBD; BEI NR52309
Units for pKd: none; it is -log10 of a concentration expressed in mol/L.

Reference set, count: 2
>>> quantitative_result("mAb 178 (antibody, V domains shown, also called IgG 178; Antibody 178) VH: QVQLVQSGAEVKKPGASVKVSCKASGYTFTDYHMHWVRQAPGQGLEWMGWINPNSGGTNYAQKFQGRVTMTRDTSTSTVYMELSSLRSEDTAVYYCARDISSWYEITKFDPWGQGTLVTVSS VL: EIVMTQSPATLSVSPGERATLSCKASQSVSGTYLAWYQQKPGQAPRLLIYGASTRATGIPARFSGSGSGTEFTLTISSLQSEDFAVYYCLQTHSYPPTFGQGTKVEIKR")
7.14
>>> quantitative_result("mAb 46 (antibody, V domains shown, also called IgG 46; Antibody 46) VH: EVQLLESGGGLVQPGRSLRLSCAASGFTFSSYAMSWVRQAPGKGLEWVSTIYSGGSTYYADSVKGRFTISRDNSKNTLYLQMNSLRAEDTAVYYCARGDSRDAFDIWGQGTMVTVSS VL: DIQMTQSPSSLSASVGDRVTITCRASQSISSWLAWYQQKPGKAPKLLIYDASNLETGVPSRFSGSGSGTDFTLTISSLQPEDFATYYCQQSYSTPFTFGPGTKVDIKR")
7.08

Consider the record given below.
Check the records and state pKd for mAb 128 (antibody, V domains shown) VH: QVQLVQSGAEVKKPGASVKVSCKASGYTFTHYYMHWVRQAPGQGLEWMGIINPSSSSASYSQKFQGRVTMTRDTSTSTVYMELSSLRSEDTAVYYCARDGRYGSGSYPFDYWGQGTLVTVSS VL: DIQMTQSPSSLSASVGDRVTITCRASQNISRYLNWYQQKPGKAPKLLIYDASNLETGVPSRFSGSGSGTDFTLTISSLQPEDFATYYCQQANGFPPTFGQGTKLEIKR
7.24
